- test: TOX21_p53_BLA_p2_viability: Viability Assessment in the Tox21 HCT-116 p53 Agonism Beta-lactamase Assay, Phase 2 (AID 2283591);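 further: compound exposure lasted 16 h at 37 °C; actives lower the ATP signal meaning cytotoxicity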
Records with an inconclusive call do not appear. Active and inactive are the calls of the source. How the source made its calls: active means hit-call score of the fitted dose curve at least 0.9, where 1 is the maximum; inconclusive means response in the unintended direction; inactive means score below 0.9.
Labels: t for active, f for inactive

# compound, label-value
records = [
    ("CC(C)N1CCN(c2ccc(OC[C@H]3CO[C@](Cn4cncn4)(c4ccc(Cl)cc4Cl)O3)cc2)CC1", "f"),
    ("O=C(CCN1CCN2CCCC2C1)N1c2ccccc2Sc2ccc(Cl)cc21 (stereo not given)", "f"),
    ("Cc1c(N(C)CS(=O)(=O)O)c(=O)n(-c2ccccc2)n1C", "f"),
    ("Nc1ccn(C[C@@H](CO)OCP(=O)(O)O)c(=O)n1", "f"),
    ("CC(=O)OC(OC(C)=O)c1ccc([N+](=O)[O-])o1", "t"),
    ("CCC(C)=NO[Si](C)(ON=C(C)CC)ON=C(C)CC", "f"),
    ("O=[N+]([O-])c1ccccc1Nc1ccccc1", "f"),
    ("[O-][N+](=Nc1ccccc1)c1ccccc1", "f"),
    ("O=C(O)c1cccc(-c2noc(-c3ccccc3F)n2)c1", "f"),
    ("Cc1c(C)n(Cc2ccccc2)c2ccc(C(=O)OCCN(C)C)cc12", "f"),
]

Data credit: PubChem BioAssay (EPA / NIEHS)
